# assayed system: GST-tagged ROR gamma ligand binding domain (LBD) (Homo sapiens, UniProt P51449)
# Construct: purchased Invitrogen
# procedure details: TR-FRET assay for ROR gamma (LanthaScreen co-activator peptide recruitment)
# Format: biochemical
# particulars: compound concentration 10 μM; TR-FRET ratio 520/495, percent of control
measurement name: inhibition at 10 µM (%)

> print(dat)
                                    compound     measurement.name  units  experimental.value
 1  CCC(F)(F)c1ccc(CC(=O)Nc2ccc(-c3nccnc3OCc3c(C)noc3C)cc2)cc1  inhibition at 10 µM      %                74.6
 2  CCC(F)(F)c1ccc(CC(=O)Nc2ccc(-c3nccnc3-c3ccc(Cl)cc3F)cc2)cc1  inhibition at 10 µM      %                86.4
 3  CCC(F)(F)c1ccc(CC(=O)Nc2ccc(-c3nccc(=O)n3-c3ccc(F)cc3Cl)cc2)cc1  inhibition at 10 µM      %                88.8
 4  CC(O)C(F)(F)c1ccc(CC(=O)Nc2ccc(-c3nccnc3-c3ccc(F)c(F)c3)cc2)cc1 (stereo not shown)  inhibition at 10 µM      %                72.1
 5  CCC(F)(F)c1ccc(CC(=O)Nc2ccc(-c3nccnc3N[C@@H](C)c3ccc(C)cc3C)cc2)cc1  inhibition at 10 µM      %                97.1
 6  CCC(F)(F)c1ccc(CC(=O)Nc2ccc(-c3nccnc3-c3ccc(C(F)(F)F)cc3)cc2)cc1  inhibition at 10 µM      %                  83
 7  CC(O)C(F)(F)c1ccc(CC(=O)Nc2ccc(-c3nccnc3-c3ccccc3Cl)cc2)cc1 (stereo not shown)  inhibition at 10 µM      %                73.5
 8  CCC(F)(F)c1ccc(CC(=O)Nc2ccc(-c3nccnc3-c3ccc(OC)cc3)cc2)cc1  inhibition at 10 µM      %                83.5
 9  CCC(F)(F)c1ccc(CC(=O)Nc2ccc(-c3nccnc3NCc3ccccc3)cc2)cc1  inhibition at 10 µM      %                85.2
10  CCC(F)(F)c1ccc(CC(=O)Nc2ccc(-c3nccnc3OC(C)c3ccccc3C3CC3)cc2)cc1 (stereo not shown)  inhibition at 10 µM      %                88.3
11  CCC(F)(F)c1ccc(CC(=O)Nc2ccc(-c3nccnc3N[C@@H](C)c3ccccc3)cc2)cc1  inhibition at 10 µM      %                91.4
12  CCC(F)(F)c1ccc(CC(=O)Nc2ccc(-c3nccnc3-c3ccc(C)cc3)cc2)cc1  inhibition at 10 µM      %                84.4
13  CC(O)C(F)(F)c1ccc(CC(=O)Nc2ccc(-c3nccnc3N[C@@H](C)c3ccccc3Cl)cc2F)cc1 (stereo partly shown)  inhibition at 10 µM      %                89.2
14  CC(O)C(F)(F)c1ccc(CC(=O)Nc2ccc(-c3nccnc3-c3ccc(F)cc3)cc2)cc1 (stereo not shown)  inhibition at 10 µM      %                85.3
15  CCC(F)(F)c1ccc(CC(=O)Nc2ccc(-c3nccnc3O[C@H](C)c3ccccc3)cc2)cc1  inhibition at 10 µM      %                85.8
16  CC(O)C(F)(F)c1ccc(CC(=O)Nc2ccc(-c3nccnc3OCc3ccccc3Cl)cc2)cc1 (stereo not shown)  inhibition at 10 µM      %                82.6

###

# assayed system: GST-tagged ROR gamma ligand binding domain (LBD) (Homo sapiens)
# Sequence (P51449 269-508 limits assumed): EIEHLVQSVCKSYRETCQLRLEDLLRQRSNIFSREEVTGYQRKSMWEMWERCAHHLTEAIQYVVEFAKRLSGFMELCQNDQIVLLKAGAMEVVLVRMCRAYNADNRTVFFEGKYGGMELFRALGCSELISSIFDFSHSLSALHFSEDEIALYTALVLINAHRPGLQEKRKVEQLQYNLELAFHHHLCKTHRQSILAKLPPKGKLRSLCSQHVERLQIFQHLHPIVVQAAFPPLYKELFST
pIC50: −log10 of the molar value.
measurement name: pIC50

> print(dat)
                                   compound                            assayed.system  experimental.value
1  Cc1ccc([C@H](C)Nc2nccnc2-c2ccc(NC(=O)Cc3ccc(C(F)(F)C(C)O)cc3)cc2)c(C)c1 (stereo partly shown)  GST-tagged ROR gamma ligand binding domain (LBD) (Homo sapiens)              > 7.30
2  CCc1ccccc1-c1nccnc1-c1ccc(NC(=O)Cc2ccc(C(F)(F)[C@H](C)O)cc2)cc1  GST-tagged ROR gamma ligand binding domain (LBD) (Homo sapiens)              > 7.30
3  CC(O)C(F)(F)c1ccc(CC(=O)Nc2ccc(-c3nccnc3-c3ccc(Cl)cc3)cc2)cc1 (stereo not shown)  GST-tagged ROR gamma ligand binding domain (LBD) (Homo sapiens)              > 7.30
4  CCC(F)(F)c1ccc(CC(=O)Nc2ccc(-c3cnccc3-c3ccc(Cl)cc3)cc2)cc1  GST-tagged ROR gamma ligand binding domain (LBD) (Homo sapiens)        6.30 to 7.00

###

# assayed system: GST-tagged ROR gamma ligand binding domain (LBD) (Homo sapiens, UniProt P51449)
# Construct: purchased Invitrogen
# procedure details: TR-FRET assay for ROR gamma (LanthaScreen co-activator peptide recruitment)
# Assay type: biochemical
# particulars: compound concentration 1 μM; TR-FRET ratio 520/495, percent of control
measurement name: inhibition at 1 µM (%)

> print(dat)
                                   compound                            assayed.system  experimental.value
1  CCN1CCN(c2nccnc2-c2ccc(NC(=O)Cc3ccc(C(F)(F)CC)cc3)cc2)CC1  GST-tagged ROR gamma ligand binding domain (LBD) (Homo sapiens, UniProt P51449)                27.3
2  CCC(F)(F)c1ccc(CC(=O)Nc2ccc(-n3nc(C)cc3-c3ccc(F)cc3)cc2)cc1  GST-tagged ROR gamma ligand binding domain (LBD) (Homo sapiens, UniProt P51449)                65.5
3  CCC(F)(F)c1ccc(CC(=O)Nc2ccc(-c3nccnc3-c3ccc(Cl)cc3)cc2F)cc1  GST-tagged ROR gamma ligand binding domain (LBD) (Homo sapiens, UniProt P51449)                71.9
4  CCC(F)(F)c1ccc(CC(=O)Nc2ccc(-n3nc(C(F)(F)F)cc3-c3ccccc3Cl)cc2)cc1  GST-tagged ROR gamma ligand binding domain (LBD) (Homo sapiens, UniProt P51449)                77.1
5  CCC(F)(F)c1ccc(CC(=O)Nc2ccc(-c3nccnc3O[C@H](C)c3ccccc3Cl)cc2)cc1  GST-tagged ROR gamma ligand binding domain (LBD) (Homo sapiens, UniProt P51449)                79.7
6  CC(O)C(F)(F)c1ccc(CC(=O)Nc2ccc(-c3nccnc3N3CC(OCc4ccccc4)C3)cc2)cc1 (centres unmarked)  GST-tagged ROR gamma ligand binding domain (LBD) (Homo sapiens, UniProt P51449)                15.8
7  CCC(F)(F)c1ccc(CC(=O)Nc2ccc(-c3ncccc3-c3ccccc3Cl)cc2)cc1  GST-tagged ROR gamma ligand binding domain (LBD) (Homo sapiens, UniProt P51449)                81.3
8  CCC(F)(F)c1ccc(CC(=O)Nc2ccc(-c3nccnc3NC(CO)c3ccccc3)cc2)cc1 (centres unmarked)  GST-tagged ROR gamma ligand binding domain (LBD) (Homo sapiens, UniProt P51449)                22.5

###

Record type: pIC50 measurement. Applies to: GST-tagged ROR gamma ligand binding domain (LBD) (Homo sapiens)
pIC50: −log10 of the molar value.
measurement name: pIC50

> print(dat)
                                   compound  experimental.value
1  CCC(F)(F)c1ccc(CC(=O)Nc2ccc(-c3nccnc3O[C@H](C)c3ccccc3)cc2)cc1        6.30 to 7.00
2  CCC(F)(F)c1ccc(CC(=O)Nc2ccc(-c3ncccc3-c3ccc(F)cc3)cc2)cc1        6.30 to 7.00
3  CCC(F)(F)c1ccc(CC(=O)Nc2ccc(-c3nccnc3-c3ccc(Cl)cc3)cc2F)cc1        6.30 to 7.00
4  CC(O)C(F)(F)c1ccc(CC(=O)Nc2ccc(-c3nccnc3-c3cccc(Cl)c3)cc2)cc1 (stereo not shown)              < 6.30
5  CCC(F)(F)c1ccc(CC(=O)Nc2ccc(-c3nccc(=O)n3-c3ccc(F)cc3Cl)cc2)cc1              > 7.30
6  CC(O)C(F)(F)c1ccc(CC(=O)Nc2ccc(-c3nccnc3N[C@@H](C)c3ccccc3Cl)c(F)c2)cc1 (stereo partly shown)        7.00 to 7.30
7  CCC(F)(F)c1ccc(CC(=O)Nc2ccc(-c3nccnc3N[C@@H](C)c3ccc(Cl)cc3)cc2)cc1        7.00 to 7.30
